From: PubChem BioAssay (NCI)

- System: MDA-MB-435
- method_notes: NCI tumour cell line growth inhibition, 48 h
Kind request: treat 10 µM as inclusive, so TGI at 10 µM or higher is fulfilled, anything lower is not fulfilled.

# input Does TGI meet or surpass 10 µM for `N#Cc1ccc(Nc2nc3nc[nH]c3c(=O)[nH]2)cc1` ?
# output fulfilled

* * *

- Test system: CAKI-1 renal
- method_notes: NCI tumour cell line growth inhibition, 48 h
outcome_measure: TGI

# input Value lookup for TGI; key = `COC(=O)c1c(-c2ccccc2)csc1NC(=O)c1c(-c2ccccc2)noc1C`
# output > 100 µM

# input Value lookup for TGI; key = `CNCCNc1nc2ccccc2c2c(=O)c3cccc(OC)c3sc12`
# output 2.71 µM

# input Value lookup for TGI; key = `Cc1ccc(/C=C(\C#N)n2nnc3cc(F)c(F)cc32)cc1`
# output 19.1 µM

# input Value lookup for TGI; key = `O=C(O)CCCN1CCCCC1`
# output > 100 µM

# input Value lookup for TGI; key = `O=C1c2cc3c(cc2-c2c1c1ccc([N+](=O)[O-])cc1c(=O)n2CCCCl)OCO3`
# output 76.6 µM

# input Value lookup for TGI; key = COc1nc2c(nc(N)n2C2OC(CO)C(O)C(O)C2O)c(=O)n1C (configuration not stated)
# output > 100 µM

# input Value lookup for TGI; key = `O=c1[nH]c2ccc(CC(=S)N3CCN(c4ccccc4)CC3)cc2s1`
# output > 100 µM

* * *

Reported GI50 values for the following compounds.
- Tested on: RXF 393 renal
- method_notes: NCI tumour cell line growth inhibition, 48 h

# input Given the entry `O=C(CCN1CCCC1)Nc1ccc2c(NCCCCc3ccccc3)c3ccccc3nc2c1` , what GI50 was observed with RXF 393 renal?
# output 0.802 µM

# input Given the entry `C=C1C(=O)O[C@H]2[C@H]1CC/C(COC(=O)CCC(=O)OC/C1=C/CC[C@@]3(C)O[C@H]3[C@H]3OC(=O)C(=C)[C@@H]3CC1)=C\CC[C@@]1(C)O[C@@H]21` , what GI50 was observed with RXF 393 renal?
# output 0.661 µM

# input Given the entry `Cn1cccc1-c1cc(-c2ccc(Br)cc2)nc(N)c1C#N` , what GI50 was observed with RXF 393 renal?
# output 30.3 µM

* * *

- Test system: OVCAR-3 ovarian
- method_notes: NCI tumour cell line growth inhibition, 48 h
Reported TGI values for the following compounds.

[
  {
    "compound": "C=C1C(=O)O[C@H]2[C@H]1CC/C(COC(=O)CCC(=O)OC/C1=C/CC[C@@]3(C)O[C@H]3[C@H]3OC(=O)C(=C)[C@@H]3CC1)=C\\CC[C@@]1(C)O[C@@H]21",
    "experimental_result": "1.91 µM"
  },
  {
    "compound": "NC12c3c4cccc3Oc3cccc(c31)Oc1cccc(c12)O4",
    "experimental_result": "> 50 µM"
  },
  {
    "compound": "CCN(CCCl)CCNc1c2ccccc2nc2ccc(OC)cc12",
    "experimental_result": "4.71 µM"
  }
]

# input Value lookup for TGI; key = C[C@H](NC(=O)OC1C2C=CC(O)C1CC2)c1ccccc1 (stereo not given in full)
# output > 100 µM

# input Value lookup for TGI; key = CC(O)CN(CCN(CC(C)O)CC(C)O)CC(C)O.O=[N+]([O-])O.[Cu+2] (stereo not given)
# output > 100 µM

# input Value lookup for TGI; key = `COc1ccc2cc(C(=O)NCCc3ccccc3)ccc2c1OC`
# output > 100 µM

# input Value lookup for TGI; key = `c1ccc(/C(=N/Nc2cnccn2)c2ncccn2)cc1`
# output > 100 µM

# input Value lookup for TGI; key = CC1OC(OP(=O)(OCc2ccccc2)OCc2ccccc2)C(OC(=O)c2ccccc2)C(OC(=O)c2ccccc2)C1I (stereo not given)
# output > 100 µM

# input Value lookup for TGI; key = `O=C(Nc1ccccc1Cl)c1ccc(NC2=C(Cl)C(=O)N(Cc3ccccc3)C2=O)cc1`
# output 36.6 µM

* * *

- Tested on: K-562 leukemia
- method_notes: NCI tumour cell line growth inhibition, 48 h
outcome_measure: TGI

Past entries and their recorded results:
[
  {
    "molecule": "O=C1NC(=NCc2ccccn2)S/C1=C\\c1ccc2ncccc2c1",
    "test_system": "K-562 leukemia",
    "TGI": "> 25 µM"
  },
  {
    "molecule": "CCN(CC)P1(=S)Oc2ccc3ccccc3c2-c2c(ccc3ccccc23)O1",
    "test_system": "K-562 leukemia",
    "TGI": "> 100 µM"
  },
  {
    "molecule": "COc1ccc(N=NN2CCCC2)cc1",
    "test_system": "K-562 leukemia",
    "TGI": "> 100 µM"
  },
  {
    "molecule": "C=C1C(=O)OC2C(C)C3C=CC(=O)[C@@]3(C)C(OC(=O)/C(C)=C/C)C1[C@@H]2OC(C)=O (stereo partly specified)",
    "test_system": "K-562 leukemia",
    "TGI": "16 µM"
  },
  {
    "molecule": "Cn1cc(C(=O)C2CCCCC2)ccc1=O",
    "test_system": "K-562 leukemia",
    "TGI": "> 100 µM"
  }
]

Could you now look at the following molecule, please?
# input Value lookup for TGI; key = `CO/N=C1/c2cc(OC)ccc2-c2c(NOC)nc3ccccc3c21`
# output > 100 µM

* * *

- System: SF-295 CNS
- method_notes: NCI tumour cell line growth inhibition, 48 h
outcome_measure: TGI

Past entries and their recorded results:
[
  {
    "molecule": "CC(=O)Nc1ccc(C(=O)N[C@@H]2C(=O)N3[C@@H]2SC(C)(C)[C@@H]3C(=O)O)cn1",
    "test_system": "SF-295 CNS",
    "experimental_result": "> 100 µM"
  },
  {
    "molecule": "CCCCCCc1cc(C=O)sc1-c1ccc(-c2sc(-c3ccc(-c4ccc(-c5cc(CCCCCC)c(-c6ccc(-c7sc(C=O)cc7CCCCCC)s6)s5)s4)s3)cc2CCCCCC)s1",
    "test_system": "SF-295 CNS",
    "experimental_result": "> 100 µM"
  },
  {
    "molecule": "Cc1ccc(Nc2ncnc3sc(SCc4ccccc4)nc23)cc1",
    "test_system": "SF-295 CNS",
    "experimental_result": "> 100 µM"
  },
  {
    "molecule": "N#Cc1nn(-c2ccc(Cl)cc2)c(N)c2c(=N)n3nc(-c4ccccc4)cc3nc12",
    "test_system": "SF-295 CNS",
    "experimental_result": "> 24.5 µM"
  },
  {
    "molecule": "CCOC(=O)c1c(OCC)[nH]c(=O)c(C(c2ccc(F)cc2)c2c(O)c(C(=O)OCC)c(OCC)[nH]c2=O)c1O",
    "test_system": "SF-295 CNS",
    "experimental_result": "49.8 µM"
  }
]

# input Value lookup for TGI; key = CC(=O)OCC1OC(n2c(-c3ccccc3)c(N=Nc3ccc(Cl)cc3)c(C)c(C#N)c2=S)C(OC(C)=O)C(OC(C)=O)C1OC(C)=O (centres undefined)
# output > 100 µM

* * *

Reported TGI values for the following compounds.
- Tested on: HOP-62 NSCLC
- method_notes: NCI tumour cell line growth inhibition, 48 h

[
  {
    "compound": "Oc1ccc2ccccc2c1/C=N\\Nc1ccccn1",
    "TGI": "17 µM"
  }
]

# input Value lookup for TGI; key = CC1(C(O)c2ccccc2)CN(C(C)(C)C)C(=O)/C1=C\Sc1ccccc1 (stereo unspecified)
# output > 100 µM

# input Value lookup for TGI; key = `CC(C)(C)NNc1c([N+](=O)[O-])cnn(-c2ccccc2)c1=O`
# output 22.3 µM

# input Value lookup for TGI; key = COc1ccc(C2CC(c3cc(OC)c(OC)c(OC)c3)=NN2)cc1 (stereo unspecified)
# output 99.2 µM

# input Value lookup for TGI; key = CCOc1ccc2c(c1)/C(=C\C=C\C1CC(C)C3CC(OCC)CCC3N1CC)CC(C)N2CC (stereo unspecified)
# output 2.25 µM

# input Value lookup for TGI; key = `N#Cc1c2ccccc2c2nnc3cc(Cl)c(Cl)cc3n12`
# output > 100 µM

* * *

- System: MDA-MB-231 breast
- method_notes: NCI tumour cell line growth inhibition, 48 h
outcome_measure: TGI

[
  {
    "given_smiles": "CC1(C)COC(c2cccc(C3=NC(C)(C)CO3)c2)=N1",
    "experimental_result": "> 100 µM"
  },
  {
    "given_smiles": "CCOC(=O)C(=Cc1ccccc1Br)C(=O)OCC",
    "experimental_result": "36.9 µM"
  },
  {
    "given_smiles": "O=c1[nH]c2ccc(CC(=S)N3CCN(c4ccccc4)CC3)cc2s1",
    "experimental_result": "> 100 µM"
  },
  {
    "given_smiles": "CSC(=S)N/N=C(\\C)c1ccccn1",
    "experimental_result": "8.98 µM"
  },
  {
    "given_smiles": "COc1cc(/C=C\\c2ccc(SC)cc2)cc(OC)c1OC",
    "experimental_result": "> 100 µM"
  }
]

Could you now look at the following compound, please?
# input Given the entry `CC(C)=NN/C(=N\S(=O)(=O)c1cc(Cl)c(Oc2ccc([N+](=O)[O-])cc2Cl)c(Cl)c1)Nc1ccc(Cl)cc1` , what TGI was observed with MDA-MB-231 breast?
# output > 100 µM
